system: two-spotted mite; assay: Small scale field tests, mite control on Tendergreen bean plants; format: in vivo, Tetranychus urticae (Koch); settings: Test II, 500 ppm, 7 days; scale 1 to 5
Average mite control rating, 2nd Reading values by entry
The answer should be a number; do not append a unit.

Use the examples below as a reference point.
## Input Using the record for O=C1c2ccccc2C(=O)C1c1c(Cl)cccc1Cl [Compound B, 2-(2',6'-dichlorophenyl)-1,3-indandione, reference compound] , report its Average mite control rating, 2nd Reading.
## Output 3.3

## Input Using the record for Cc1cc(C)c(C2C(=O)c3ccccc3C2=O)c(C)c1 [Compound A, reference compound] , report its Average mite control rating, 2nd Reading.
## Output 1.7

## Input Using the record for Cc1cc(C)c(C2=C(OC(=O)C(C)(C)C)c3ccccc3C2=O)c(C)c1 , report its Average mite control rating, 2nd Reading.
## Output 4.7

Pending molecule:
## Input Using the record for CC(C)(C)C(=O)OC1=C(c2c(Cl)cccc2Cl)C(=O)c2ccccc21 , report its Average mite control rating, 2nd Reading.
## Output 3.3
